targetEntity: human D4.2 receptor (Homo sapiens, UniProt P21917, DEL265-296)
Sequence (P21917 with tags, fused parts or gaps DEL265-296): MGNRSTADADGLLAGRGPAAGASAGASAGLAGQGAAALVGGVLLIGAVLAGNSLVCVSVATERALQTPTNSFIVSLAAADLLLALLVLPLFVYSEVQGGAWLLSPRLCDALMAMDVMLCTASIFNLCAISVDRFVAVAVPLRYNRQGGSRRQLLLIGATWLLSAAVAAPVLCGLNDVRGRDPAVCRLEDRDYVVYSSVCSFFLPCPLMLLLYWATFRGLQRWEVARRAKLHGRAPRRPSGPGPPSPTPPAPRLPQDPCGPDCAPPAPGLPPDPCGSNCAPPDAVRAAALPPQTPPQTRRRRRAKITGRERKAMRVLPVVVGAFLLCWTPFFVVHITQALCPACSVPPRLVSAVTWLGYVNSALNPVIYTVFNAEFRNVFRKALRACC
assayProtocol: Dopamine D4 receptor binding experiment ([3H]-spiperone)
appliedConditions: CHO cell membranes expressing human D4.2 receptor, [3H]-spiperone (0.5 nM), 27°C, 2 hours
So basically: is IC50 under 8 nM? Then Fulfilled. Not under? Then Not fulfilled.

Some solved entries appear below for comparison.
Nc1nc(-c2ccc(F)cc2)c(C2CCN(CCCc3noc4cc(F)ccc34)C2)s1 (stereo not drawn) [Compound E-02] ... Not fulfilled
Nc1nc(-c2ccc(F)cc2)c(C2CCN(CCCc3nsc4cc(F)ccc34)C2)s1 (stereo not drawn) ... Fulfilled
Nc1nc(-c2ccc(F)cc2)c(CCN2CCC(C(=O)c3ccc(Br)cc3)CC2)s1 ... Not fulfilled

Challenge: I wonder whether C=C(c1ccc(F)cc1)C1CCN(CCc2sc(N)nc2-c2ccc(F)cc2)CC1 has IC50 below 8 nM. Can you tell?
Response given: Not fulfilled

Challenge: I wonder whether Cc1ccc(C(=O)C2CCN(CCc3sc(C)nc3-c3ccc(F)cc3)CC2)cc1 has IC50 below 8 nM. Can you tell?
Response given: Fulfilled

Challenge: I wonder whether Nc1nc(-c2ccc(F)cc2)c(C2CCN(CCCCc3noc4cc(F)ccc34)C2)s1 (stereo not drawn) has IC50 below 8 nM. Can you tell?
Response given: Not fulfilled

Challenge: I wonder whether Nc1nc(-c2ccc(F)cc2)c(C2CCN(CCCN3C(=O)Cc4ccccc43)C2)s1 (stereo not drawn) has IC50 below 8 nM. Can you tell?
Response given: Not fulfilled

Challenge: I wonder whether Cc1nc(-c2ccc(F)cc2)c(CCN2CCC(C(=O)c3ccc(Cl)cc3)CC2)s1 has IC50 below 8 nM. Can you tell?
Response given: Fulfilled

Challenge: I wonder whether Nc1nc(-c2ccc(F)cc2)c(C2CCN(CCCN3C(=O)CCc4cc(F)ccc43)C2)s1 (stereo not drawn) has IC50 below 8 nM. Can you tell?
Response given: Not fulfilled

Challenge: I wonder whether Cc1nc(-c2ccc(F)cc2)c(CCN2CCC(C(=O)c3ccc(Br)cc3)CC2)s1 has IC50 below 8 nM. Can you tell?
Response given: Not fulfilled

Challenge: I wonder whether Nc1nc(-c2ccc(F)cc2)c(CCN2CCC(C(=O)c3ccccc3)CC2)s1 has IC50 below 8 nM. Can you tell?
Response given: Not fulfilled

Challenge: I wonder whether Cc1ccc(-c2nc(C)sc2CCN2CCC(C(=O)c3ccc(F)cc3)CC2)cc1 has IC50 below 8 nM. Can you tell?
Response given: Fulfilled

Challenge: I wonder whether COc1ccc(C(=O)C2CCN(CCc3sc(C)nc3-c3ccc(F)cc3)CC2)cc1 has IC50 below 8 nM. Can you tell?
Response given: Not fulfilled

Challenge: I wonder whether Cc1nc(-c2ccc(Br)cc2)c(CCN2CCC(C(=O)c3ccc(F)cc3)CC2)s1 has IC50 below 8 nM. Can you tell?
Response given: Fulfilled

Challenge: I wonder whether Nc1nc(-c2ccc(F)cc2)c(C2CCN(CCC=Cc3ccc(F)cc3)C2)s1 (stereo not drawn) has IC50 below 8 nM. Can you tell?
Response given: Not fulfilled

Challenge: I wonder whether Nc1nc(-c2ccc(F)cc2)c(C2CCN(CCCn3c(=O)ccc4cc(F)ccc43)C2)s1 (stereo not drawn) has IC50 below 8 nM. Can you tell?
Response given: Not fulfilled

Challenge: I wonder whether Cc1nc(-c2ccccc2)c(CCN2CCC(C(=O)c3ccc(F)cc3)CC2)s1 has IC50 below 8 nM. Can you tell?
Response given: Fulfilled

Challenge: I wonder whether Nc1nc(-c2ccc(F)cc2)c(C2CCN(CCCC(=O)c3ccc(F)cc3)C2)s1 [Compound D-02] has IC50 below 8 nM. Can you tell?
Response given: Fulfilled

Challenge: I wonder whether Cc1nc(-c2ccc(F)cc2)c(C2CCN(CCCC(=O)c3ccc(F)cc3)C2)s1 (racemic) has IC50 below 8 nM. Can you tell?
Response given: Fulfilled

Challenge: I wonder whether Nc1nc(-c2ccc(F)cc2)c(C2CCN(CCCN3C(=O)Cc4cc(F)ccc43)C2)s1 (stereo not drawn) has IC50 below 8 nM. Can you tell?
Response given: Not fulfilled

Challenge: I wonder whether Nc1nc(-c2ccc(F)cc2)c(C2CCN(CCCc3nsc4ccccc34)C2)s1 (stereo not drawn) has IC50 below 8 nM. Can you tell?
Response given: Not fulfilled

###

targetEntity: human D4.2 receptor (Homo sapiens, UniProt P21917, DEL265-296)
assayProtocol: Dopamine D4 receptor binding experiment ([3H]-spiperone)
appliedConditions: inhibition of [3H]-spiperone binding, human D4.2 receptor
Reported values of IC50 for individual entries

Challenge: Given COc1ccc(C=C2CCN(CCc3sc(C)nc3-c3ccc(F)cc3)CC2)cc1 , respond with its IC50.
Response given: 16.7 nM

Challenge: Given Nc1nc(-c2ccc(F)cc2)c(CCN2CCC(=Cc3cccc(C(F)(F)F)c3)CC2)s1 , respond with its IC50.
Response given: 24.2 nM

Challenge: Given Fc1ccc(-c2ncsc2CCN2CCC(=Cc3ccccc3)CC2)cc1 , respond with its IC50.
Response given: 3.43 nM

Challenge: Given Nc1nc(-c2ccccc2)c(CCN2CCC(=Cc3ccc(F)cc3)CC2)s1 , respond with its IC50.
Response given: 22.1 nM

###

Reported values of log10(IC50) for individual entries
targetEntity: human D4.2 receptor (Homo sapiens, UniProt P21917, DEL265-296)
assayProtocol: Dopamine D4 receptor binding experiment ([3H]-spiperone)
appliedConditions: inhibition of [3H]-spiperone binding, human D4.2 receptor
The figures below represent log10 of IC50, where IC50 is stated in nM.

Worked cases, answers included:
Nc1nc(-c2ccc(F)cc2)c(CCN2CCC(CC(=O)c3ccc(F)cc3)C2)s1 (stereo not drawn) [Compound K-37] ... 1.02
Nc1nc(-c2ccc(F)cc2)c(CCN2CCC(=Cc3ccc(Cl)cc3)CC2)s1 [Compound L-08] ... 1.87

Challenge: Given CC(=C1CCN(CCc2sc(N)nc2-c2ccc(F)cc2)CC1)c1ccc(F)cc1 [Compound L-15] , respond with its log10(IC50).
Response given: 0.90

Challenge: Given O=C(c1ccccc1)C1CCN(CCc2scnc2-c2ccc(F)cc2)CC1 [Compound K-34] , respond with its log10(IC50).
Response given: 1.30

Challenge: Given Cc1nc(-c2ccc(F)cc2)c(CCN2CCC(=Cc3cccc(C(F)(F)F)c3)CC2)s1 [Compound L-29] , respond with its log10(IC50).
Response given: 1.02

Challenge: Given COc1ccc(-c2nc(C)sc2CCN2CCC(=Cc3ccc(F)cc3)CC2)cc1Br [Compound L-22] , respond with its log10(IC50).
Response given: 1.14

Challenge: Given O=C(c1ccc(F)cc1)C1CCN(CCc2sc(-c3ccccc3)nc2-c2ccc(F)cc2)CC1 [Compound K-35] , respond with its log10(IC50).
Response given: 1.51

Challenge: Given Cc1ccc(-c2nc(C)sc2CCN2CCC(=Cc3ccc(F)cc3)CC2)cc1 [Compound L-21] , respond with its log10(IC50).
Response given: 0.41

###

targetEntity: human D4.2 receptor (Homo sapiens, UniProt P21917, DEL265-296)
assayProtocol: Dopamine D4 receptor binding experiment ([3H]-spiperone)
appliedConditions: inhibition of [3H]-spiperone binding, human D4.2 receptor
Procedure: As a receptor preparation, Chinese hamster ovary (CHO) cell membranes where human D4.2 receptor was expressed were used. As [^3H]-labeled ligand, [^3H]-spiperone was used. […] After the reaction, the sample was filtered under suction through a glass filter (GF/B), and the radioactivity of the filter paper was determined in a liquid scintillation spectrometer. […]
Reported values of IC50 for individual entries

Worked cases, answers included:
Cc1nc(-c2ccccc2)c(CCN2CCC(=Cc3ccc(F)cc3)CC2)s1 [Compound L-23] ... 3.13 nM
Nc1nc(-c2ccc(F)cc2)c(CCCN2CCC(=Cc3ccc(F)cc3)CC2)s1 [Compound L-02] ... 38.5 nM
Nc1nc(-c2ccc(Cl)cc2)c(CCN2CCC(=Cc3ccc(F)cc3)CC2)s1 [Compound L-03] ... 22.1 nM

// switching to the query compound
Challenge: Given Cc1nc(-c2ccc(F)cc2)c(CCN2CCC(=Cc3cccc(F)c3)CC2)s1 [Compound L-27] , respond with its IC50.
Response given: 1.96 nM

###

Reported values of IC50 for individual entries
targetEntity: human D4.2 receptor (Homo sapiens, UniProt P21917, DEL265-296)
assayProtocol: Dopamine D4 receptor binding experiment ([3H]-spiperone)
appliedConditions: inhibition of [3H]-spiperone binding, human D4.2 receptor
Quick note: give the figure in nM, leave out the unit.

Nc1nc(-c2ccc(Br)cc2)c(CCN2CCC(=Cc3ccc(F)cc3)CC2)s1 ... 13.9
Cc1nc(-c2ccc(F)cc2)c(CCN2CCC(=Cc3ccccc3F)CC2)s1 ... 5.99
Cc1ccc(-c2nc(N)sc2CCN2CCC(=Cc3ccc(F)cc3)CC2)cc1 ... 4.13
COc1ccc(-c2nc(C)sc2CCN2CCC(=Cc3ccc(F)cc3)CC2)cc1 ... 7.22
Nc1nc(-c2ccc(F)cc2)c(CCN2CCC(=Cc3ccccc3)CC2)s1 ... 3.76
Cc1nc(-c2ccc(Cl)cc2)c(CCN2CCC(=Cc3ccc(F)cc3)CC2)s1 ... 9.55

Challenge: Supply IC50 measured with human D4.2 receptor (Homo sapiens, UniProt P21917, DEL265-296) for Nc1nc(-c2ccc(F)cc2)c(CCN2CCC(=Cc3ccc(F)cc3)CC2)s1 .
Response given: 2.85

Challenge: Supply IC50 measured with human D4.2 receptor (Homo sapiens, UniProt P21917, DEL265-296) for Cc1nc(-c2ccc(F)cc2)c(CCN2CCC(=Cc3ccc(F)cc3)CC2)s1 .
Response given: 12.6
